I'd appreciate it if you could supply IC50 values for the items below.
Target: CthTTM (Acetivibrio thermocellus)
Sequence (A3DIJ8 whole entry): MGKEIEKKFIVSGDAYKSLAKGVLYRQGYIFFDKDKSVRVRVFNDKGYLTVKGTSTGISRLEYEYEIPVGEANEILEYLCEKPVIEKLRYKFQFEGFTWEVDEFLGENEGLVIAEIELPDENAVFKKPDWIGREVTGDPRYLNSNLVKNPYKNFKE
Assay: TLC assay for 32Pi release from [γ-32P]ATP, CthTTM
Type: biochemical, Clostridium thermocellum
Numbers only, in µM.

Below are some compounds; for each one, tell me its IC50.
1. O=C(/C=C/c1ccccc1)O[C@@H]1C[C@](OC(=O)/C=C/c2ccccc2)(C(=O)O)C[C@@H](OC(=O)/C=C/c2ccccc2)[C@H]1OC(=O)/C=C/c1ccccc1
2. CC(=O)O[C@@]12C[C@@H](OC(=O)/C=C/c3ccc(O)c(O)c3)[C@@H](OC(=O)/C=C/c3ccc(O)c(O)c3)[C@@H](C1)OC2=O [Compound 6C, 1-acetyl,4,5-dicaffeoylquinide]

(A)
17
46

The measured values listed here are drawn from paper PMC4791841.
